- assay_summary: basal S. cerevisiae growth modulation, no modifier, primary screen, OD600, strain BY4716, 24 h, basal condition (AID 1173)
- stated_conditions: OD600, 24 h, higher = more signal, called active from +8 up or from −8 down
Each entry gets criterion not met if its z-score stays under -0.4, and criterion met if its z-score is -0.4 or above.

- C=CCC(OC(C)=O)[C@@H]1[C@@H](N(Cc2cccc3ccccc23)C(=O)c2ccc(C)cc2)c2cc(OCCCO)ccc2N1C(=O)Cc1ccc(OC)cc1 (some centres undefined): criterion not met
- COCCOC(=O)N1C(=O)[C@@]2(c3cc(C#CCNC(N)=O)ccc31)[C@H](c1ccc(OCCO)cc1)N1[C@H](c3ccccc3)[C@H](c3ccccc3)OC(=O)[C@H]1[C@@H]2C(=O)N1CCc2cc(OC)c(OC)cc2C1: criterion met
- COC(=O)C[C@@H]1C[C@H](C)[C@]2(O1)C(=O)N(Cc1ccccc1)c1ccc(NC(C)=O)cc12: criterion not met
- C=CCOC(=O)[C@@H]1[C@H]2C(=O)O[C@H](c3ccccc3)[C@H](c3ccccc3)N2[C@H](c2ccc(OCCOC(=O)[C@@H]3C[C@@H]4C(=O)NCC(=O)N4[C@@H]3c3cccc(OCCO)c3)cc2)[C@@]12C(=O)Nc1ccc(I)cc12: criterion met
- COc1ccc(C#Cc2ccc3c(c2)[C@]2(C(=O)N3)[C@H](c3ccc(O)cc3)N3[C@H](c4ccccc4)[C@H](c4ccccc4)OC(=O)[C@H]3[C@@H]2C(=O)NC[C@H](O)c2ccccc2)cc1: criterion met
- O=C1N(CCS(=O)(=O)c2ccccc2)Cc2ccccc2[C@H]2OC(c3ccc(OCCCO)cc3)=N[C@@]12CCS(=O)(=O)c1ccccc1: criterion met
- CCCCCN1CC=CC23O[C@@H]4/C=C\CCCOC(=O)C4[C@H]2C(=O)N(CCCCCCO)[C@@H]3C1=O (some centres undefined): criterion not met

Now examine the next entry.
Problem: Threshold query (z-score >= -0.4) on O=C1C2C=CC(C(O)c3ccc(B(O)O)cc3)N(Nc3ccccc3)C2C(=O)N1c1ccccc1 (centres undefined)
Solution: criterion not met
